Pre-boost titre (50%) for assorted molecules
Test system: recombinant enzymes (antigens)
Experiment: Polyclonal antisera titres by ELISA
Assay type: binding
Conditions: rabbit antiserum, after 8 weeks
quantity name: Pre-boost titre (50%)

molecule	quantity name	endpoint value
P. gingivalis YwrO: nitroreductase from Porphyromonas gingivalis, SEQ ID NO: 25 (protein, listed as Porphyromonas gingivalis) MKKTLVIVVHPDLTKSVINKAWAKAIEGAATIHHLYEQYPNGQIDLAHEQALLEAHDRIVFQFPLYWYAAPYLLKKWMDEVFTEGWAYGAGGDKMEGKEICAAVSCGSPKSAFAEGAQQCHTLRSYLNVFDGIAAFLRARFTGYHACYDSYNPRLPEMLPANCEAYLRFIKGE	Pre-boost titre (50%)	1000
Bam YwrO: nitroreductase from B. amyloliquefaciens, SEQ ID NO: 2 (protein, listed as Bacillus amyloliquefaciens) VKVLVLAVHPDMENSAVNKAWAEELKKHDELTVRELYKEYPDGQIDAEKERQLCEQYDRIVFQFPLYWYSAPPLLKTWMDHVLSYGWAYGSKGKALHGKELMLAVSVGAGEDAYQAGGSNHFTLSELLRPFQAMANFTGMTYLPAFALYGVNGADATDIHDNAKRLAAYIKKSF	Pre-boost titre (50%)	1200
YodC: nitroreductase from B. subtilis, SEQ ID NO: 12 (coded for by SEQ ID NO: 11) (protein, listed as Bacillus subtilis) MTNTLDVLKARASVKEYDTNAPISKEELTELLDLATKAPSAWNLQHWHFTVFHSDESKAELLPVAYNQKQIVESSAVVAILGDLKANENGEEVYAELASQGYITDEIKQTLLGQINGAYQSEQFARDSAFLNASLAAMQLMIAAKAKGYDTCAIGGFNKEQFQKQFDISERYVPVMLISIGKAVKPAHQSNRLPLSKVSTWL	Pre-boost titre (50%)	3700
H. influenzae NfnB: nitroreductase from H. influenzae, SEQ ID NO: 17 (protein, listed as Haemophilus influenzae) MTQLTREQVLELFHQRSSTRYYDPTKKISDEDFECILECGRLSPSSVGSEPWKFLVIQNKTLREKMKPFSWGMINQLDNCSHLVVILAKKNARYDSPFFVDVMARKGLNAEQQQAALTKYKALQEEDMKLLENDRTLFDWCSKQTYIALANMLTGASALGIDSCPIEGFHYDKMNECLAEEGLFDPQEYAVSVAATFGYRSRDIAKKSRKGLDEVVKWVG	Pre-boost titre (50%)	180
